- Tgt: DNA-PK (Homo sapiens (Human))
- Assay Info: DNAPK activity assay (ADP Hunter Plus)
- Format: biochemical
- Condition Label: 75 μM ATP
Outcome Measure: pIC50
Scale explanation: pIC50 corresponds to minus log10 of a concentration expressed in moles per litre.

Illustrative cases are given below, each with its answer.
Compound	Tgt	Meas Value
CC(C)(c1nc(-c2cc(C(F)(F)F)cc3[nH]ccc23)nc2c1OC[C@@H]1COCCN21)S(C)(=O)=O [Example 101]	DNA-PK (Homo sapiens (Human))	5.00
CS(=O)(=O)C1(c2nc(-c3cccc4[nH]ccc34)nc3c2OCC[C@H]2COCCN32)CCOCC1 [Example 23]	DNA-PK (Homo sapiens (Human))	5.20

Continue with the compound presented below.
Prompt: What measured pIC50 goes with CC(C)(c1nc(-c2ccc(F)c3[nH]ccc23)nc2c1OC[C@@H]1COCCN21)S(C)(=O)=O [Example 102] ?
Completion: 7.00

====

- Tgt: ATR (Homo sapiens (Human), UniProt Q13535)
- Sequence (Q13535 whole entry): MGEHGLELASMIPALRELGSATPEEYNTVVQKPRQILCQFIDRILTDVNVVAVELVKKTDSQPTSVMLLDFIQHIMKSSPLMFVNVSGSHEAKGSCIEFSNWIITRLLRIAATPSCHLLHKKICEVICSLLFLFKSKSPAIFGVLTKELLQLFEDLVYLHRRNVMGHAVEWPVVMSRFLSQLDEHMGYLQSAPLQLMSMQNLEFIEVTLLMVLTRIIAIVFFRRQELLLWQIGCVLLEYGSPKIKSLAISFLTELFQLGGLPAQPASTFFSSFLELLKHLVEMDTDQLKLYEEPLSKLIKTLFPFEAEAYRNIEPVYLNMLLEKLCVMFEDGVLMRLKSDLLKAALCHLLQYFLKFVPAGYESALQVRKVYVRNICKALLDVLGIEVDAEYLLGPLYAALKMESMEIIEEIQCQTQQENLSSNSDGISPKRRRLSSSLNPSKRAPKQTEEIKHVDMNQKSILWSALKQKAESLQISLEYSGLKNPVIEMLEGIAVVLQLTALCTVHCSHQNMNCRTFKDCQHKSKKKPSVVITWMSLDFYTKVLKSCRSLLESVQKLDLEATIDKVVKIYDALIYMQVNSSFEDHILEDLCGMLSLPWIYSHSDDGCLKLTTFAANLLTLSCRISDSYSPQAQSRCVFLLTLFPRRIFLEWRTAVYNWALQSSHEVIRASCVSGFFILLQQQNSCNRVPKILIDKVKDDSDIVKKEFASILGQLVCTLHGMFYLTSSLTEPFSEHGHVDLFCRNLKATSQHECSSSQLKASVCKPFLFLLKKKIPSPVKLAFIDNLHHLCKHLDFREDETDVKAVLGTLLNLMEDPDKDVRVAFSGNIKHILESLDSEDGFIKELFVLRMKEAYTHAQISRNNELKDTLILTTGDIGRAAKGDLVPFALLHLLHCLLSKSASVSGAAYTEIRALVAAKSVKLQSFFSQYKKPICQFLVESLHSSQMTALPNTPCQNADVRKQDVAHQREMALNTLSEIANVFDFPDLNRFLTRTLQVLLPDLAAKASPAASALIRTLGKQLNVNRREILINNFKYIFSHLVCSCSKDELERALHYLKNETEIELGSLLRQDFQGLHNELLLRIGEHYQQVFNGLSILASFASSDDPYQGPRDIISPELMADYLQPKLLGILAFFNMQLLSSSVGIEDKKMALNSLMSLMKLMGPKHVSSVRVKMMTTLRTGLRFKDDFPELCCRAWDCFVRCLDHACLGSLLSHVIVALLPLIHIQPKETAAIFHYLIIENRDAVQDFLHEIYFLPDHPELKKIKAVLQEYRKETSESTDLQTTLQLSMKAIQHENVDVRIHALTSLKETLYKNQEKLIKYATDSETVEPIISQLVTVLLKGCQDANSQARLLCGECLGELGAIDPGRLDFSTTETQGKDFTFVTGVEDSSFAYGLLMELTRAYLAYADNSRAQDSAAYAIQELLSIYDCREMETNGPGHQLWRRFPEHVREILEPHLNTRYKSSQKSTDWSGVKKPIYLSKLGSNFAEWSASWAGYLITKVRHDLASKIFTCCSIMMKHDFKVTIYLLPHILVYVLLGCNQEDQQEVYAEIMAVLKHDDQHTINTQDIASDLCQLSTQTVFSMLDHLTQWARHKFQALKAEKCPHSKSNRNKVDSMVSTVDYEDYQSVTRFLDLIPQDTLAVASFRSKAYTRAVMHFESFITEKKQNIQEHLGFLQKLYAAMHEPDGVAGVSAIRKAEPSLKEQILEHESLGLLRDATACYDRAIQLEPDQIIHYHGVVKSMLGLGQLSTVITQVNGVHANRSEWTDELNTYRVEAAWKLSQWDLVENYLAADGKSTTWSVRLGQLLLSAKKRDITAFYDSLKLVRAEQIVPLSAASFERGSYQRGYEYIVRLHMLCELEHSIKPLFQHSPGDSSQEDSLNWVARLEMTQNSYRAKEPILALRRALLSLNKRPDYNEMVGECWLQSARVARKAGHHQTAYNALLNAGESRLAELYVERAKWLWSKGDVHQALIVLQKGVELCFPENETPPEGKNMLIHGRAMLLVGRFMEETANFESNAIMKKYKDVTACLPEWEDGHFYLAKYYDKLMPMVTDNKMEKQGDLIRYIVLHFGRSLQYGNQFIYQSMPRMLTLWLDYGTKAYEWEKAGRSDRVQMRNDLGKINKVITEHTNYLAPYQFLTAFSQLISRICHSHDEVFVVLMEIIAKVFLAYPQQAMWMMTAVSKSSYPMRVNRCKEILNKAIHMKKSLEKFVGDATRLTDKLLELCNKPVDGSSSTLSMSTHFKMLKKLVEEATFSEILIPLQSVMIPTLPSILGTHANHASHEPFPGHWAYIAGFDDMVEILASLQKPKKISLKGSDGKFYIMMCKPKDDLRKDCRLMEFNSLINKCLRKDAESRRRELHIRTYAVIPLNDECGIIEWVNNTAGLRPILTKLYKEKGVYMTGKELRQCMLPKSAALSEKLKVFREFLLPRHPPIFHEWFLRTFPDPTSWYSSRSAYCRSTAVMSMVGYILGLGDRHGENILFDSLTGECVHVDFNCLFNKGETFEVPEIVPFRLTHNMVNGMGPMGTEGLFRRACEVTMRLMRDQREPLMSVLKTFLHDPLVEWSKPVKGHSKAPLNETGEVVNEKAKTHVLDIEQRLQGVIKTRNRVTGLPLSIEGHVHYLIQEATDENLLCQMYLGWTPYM
- Assay Info: Cellular ATR inhibition, western blot of CHK1(S345) phosphorylation in hydroxyurea treated cells
- Type: cell-based
- Condition Label: HT29 cells, hydroxyurea 2.5 mM
Outcome Measure: EC50

Illustrative cases are given below, each with its answer.
Compound	EC50
CC(C)(c1nc(-c2cc(C(F)(F)F)cc3[nH]ccc23)nc2c1OC[C@@H]1COCCN21)S(C)(=O)=O	100 to 1000 nM
CC(C)(c1nc(-c2c(F)ccc3[nH]ccc23)nc2c1OCC1COCCN21)S(C)(=O)=O (centres unmarked)	100 to 1000 nM
CNc1nc2ccccc2n1-c1nc2c(c(C(C)(C)S(C)(=O)=O)n1)OC[C@@H]1COCCN21	< 100 nM
CC(C)(C#N)c1nc(-c2cccc3[nH]ccc23)nc2c1OCC1COCCN21 (centres unmarked)	100 to 1000 nM
CS(=O)(=O)C1(c2nc(-c3cc(F)cc4[nH]ccc34)nc3c2OC[C@@H]2COCCN32)CCC1	< 100 nM

Prompt: What measured EC50 goes with CS(=O)(=O)C1(c2nc(-c3cncc4[nH]ccc34)nc3c2OCC2COCCN32)CCOCC1 (centres unmarked) ?
Completion: 100 to 1000 nM

Prompt: What measured EC50 goes with `CC(C)(c1nc(-c2cccc3[nH]ccc23)nc2c1OC[C@@H]1COCCN21)S(=O)(=O)C1CC1` ?
Completion: 100 to 1000 nM

Prompt: What measured EC50 goes with O=S(=O)(Cc1nc(-c2cccc3[nH]ccc23)nc2c1OCC1COCCN21)C(F)(F)F (centres unmarked) ?
Completion: 100 to 1000 nM

====

Measured IC50 (mTOR (Homo sapiens (Human)))
Report as a plain number; the unit nM is understood.

Illustrative cases are given below, each with its answer.
Smiles Data	Unit Symbol	IC50
COc1cc(-c2nc3c(c(C4(S(C)(=O)=O)CC4)n2)OC[C@@H]2COCCN32)c2cc[nH]c2c1	nM	93
CC(C)(c1nc(-c2cccc3[nH]ccc23)nc2c1OC[C@@H]1COCCN21)S(=O)(=O)C1CC1	nM	228
CS(=O)(=O)C1(c2nc(-c3cc(F)cc4[nH]ccc34)nc3c2OC[C@@H]2COCCN32)CCOCC1	nM	785

Continue with the molecule presented below.
Prompt: Which measured IC50 belongs to `CNc1nc2ccc(C#N)cc2n1-c1nc2c(c(C(C)(C)S(C)(=O)=O)n1)OC[C@@H]1COCCN21` , tested on mTOR (Homo sapiens (Human))?
Completion: 10000

====

- Tgt: PI3K (p110α/p85α) (Homo sapiens (Human))
- Assay Info: PI3K alpha activity assay (ADP Hunter Plus)
- Condition Label: 50 μM ATP, 30 μM PIP2; read-out: PI3Kα IC50
Outcome Measure: log10(IC50) (log10 of the value in µM)
Heads up: the numbers are on a log10 scale; they represent IC50 in µM.

Smiles Data	log10(IC50)
CC(C)(c1nc(-n2c(N3CCOCC3)nc3ccccc32)nc2c1OC[C@@H]1COCCN21)S(C)(=O)=O	1.70
CC(C)(c1nc(-c2cccc3[nH]ccc23)nc2c1OC[C@H]1COCCN21)S(C)(=O)=O	0.04
Cc1cc2c(-c3nc4c(c(C5(S(C)(=O)=O)CC5)n3)OC[C@@H]3COCCN43)cccc2[nH]1	0.76
COc1cc(-c2nc3c(c(C4(S(C)(=O)=O)CCOCC4)n2)OC[C@@H]2COCCN32)c2cc[nH]c2c1	0.58
CS(=O)(=O)C1(c2nc(-c3cc(F)cc4[nH]ccc34)nc3c2OC[C@@H]2COCCN32)CCOCC1	0.67

Prompt: What measured log10(IC50) goes with `CNc1nc2cc(Cl)ccc2n1-c1nc2c(c(C(C)(C)S(C)(=O)=O)n1)OC[C@@H]1COCCN21` ?
Completion: 1.12

Prompt: What measured log10(IC50) goes with `COc1cc(-c2nc3c(c(C(C)(C)S(C)(=O)=O)n2)OC[C@@H]2COCCN32)c2cc[nH]c2c1` ?
Completion: -0.09

====

- Tgt: ATR (Homo sapiens (Human))
- Assay Info: Cellular ATR inhibition, western blot of CHK1(S345) phosphorylation in hydroxyurea treated cells
- Format: cell-based
- Condition Label: HT29 cells, hydroxyurea 2.5 mM
Outcome Measure: EC50

Illustrative cases are given below, each with its answer.
Compound	EC50
CC(C)Nc1nc2ccccc2n1-c1nc2c(c(C(C)(C)S(C)(=O)=O)n1)OC[C@@H]1COCCN21	< 0.1 µM
CNc1nc2ccccc2n1-c1nc2c(c(C(C)(C)S(C)(=O)=O)n1)OCC[C@@H]1COCCN21	0.1 to 1 µM
CC(C)(c1nc(-c2cccc3[nH]ccc23)nc2c1OCC[C@H]1COCCN21)S(C)(=O)=O	0.1 to 1 µM
CS(=O)(=O)C1(c2nc(-c3cccc4[nH]ccc34)nc3c2OCC2COCCN32)CCOCC1 (stereo not drawn)	< 0.1 µM
COc1ccc(-c2nc3c(c(C4(S(C)(=O)=O)CCOCC4)n2)OCC2COCCN32)c2cc[nH]c12 (stereo not drawn)	0.1 to 1 µM

Prompt: What measured EC50 goes with c1cc(-c2nc(-c3cccc4[nH]ccc34)c3c(n2)N2CCOCC2CO3)c2cc[nH]c2c1 (stereo not drawn) ?
Completion: 0.1 to 1 µM

Prompt: What measured EC50 goes with COc1cc(-c2nc3c(c(C4(S(C)(=O)=O)CCOCC4)n2)OCC2COCCN32)c2cc[nH]c2c1 (stereo not drawn) ?
Completion: < 0.1 µM

Prompt: What measured EC50 goes with `CC(C)(c1nc(-c2cc(F)cc3[nH]ccc23)nc2c1OC[C@@H]1COCCN21)S(C)(=O)=O` ?
Completion: < 0.1 µM

Prompt: What measured EC50 goes with COc1cc(-c2nc3c(c(C4([S@TB1](C)(=O)=O)CCOCC4)n2)OCCC2COCCN32)c2cc[nH]c2c1 (stereo not drawn) ?
Completion: 0.1 to 1 µM

Prompt: What measured EC50 goes with `CS(=O)(=O)C1(c2nc(-c3cccc4[nH]ccc34)nc3c2OC[C@H]2COCCN32)CCOCC1` ?
Completion: 0.1 to 1 µM

Prompt: What measured EC50 goes with `CNc1nc2ccccc2n1-c1nc2c(c(C3(S(C)(=O)=O)CC3)n1)OC[C@@H]1COCCN21` ?
Completion: 0.1 to 1 µM

Prompt: What measured EC50 goes with `CS(=O)(=O)C1(c2nc(-c3cccc4[nH]ccc34)nc3c2OC[C@@H]2COCCN32)CCNCC1` ?
Completion: 0.1 to 1 µM

Prompt: What measured EC50 goes with CC(C)(c1nc(-c2cccc3[nH]ccc23)nc2c1OCC1COCCN21)S(C)(=O)=O (stereo not drawn) ?
Completion: < 0.1 µM

Prompt: What measured EC50 goes with `CNc1nc2ccccc2n1-c1nc2c(c(C3(S(C)(=O)=O)CCC3)n1)OC[C@@H]1COCCN21` ?
Completion: < 0.1 µM

Prompt: What measured EC50 goes with `COc1cc(-c2nc3c(c(C(C)(C)O)n2)OC[C@@H]2COCCN32)c2cc[nH]c2c1` ?
Completion: 0.1 to 1 µM

====

- Tgt: mTOR (Homo sapiens (Human))
- Sequence (P42345 1360-2549): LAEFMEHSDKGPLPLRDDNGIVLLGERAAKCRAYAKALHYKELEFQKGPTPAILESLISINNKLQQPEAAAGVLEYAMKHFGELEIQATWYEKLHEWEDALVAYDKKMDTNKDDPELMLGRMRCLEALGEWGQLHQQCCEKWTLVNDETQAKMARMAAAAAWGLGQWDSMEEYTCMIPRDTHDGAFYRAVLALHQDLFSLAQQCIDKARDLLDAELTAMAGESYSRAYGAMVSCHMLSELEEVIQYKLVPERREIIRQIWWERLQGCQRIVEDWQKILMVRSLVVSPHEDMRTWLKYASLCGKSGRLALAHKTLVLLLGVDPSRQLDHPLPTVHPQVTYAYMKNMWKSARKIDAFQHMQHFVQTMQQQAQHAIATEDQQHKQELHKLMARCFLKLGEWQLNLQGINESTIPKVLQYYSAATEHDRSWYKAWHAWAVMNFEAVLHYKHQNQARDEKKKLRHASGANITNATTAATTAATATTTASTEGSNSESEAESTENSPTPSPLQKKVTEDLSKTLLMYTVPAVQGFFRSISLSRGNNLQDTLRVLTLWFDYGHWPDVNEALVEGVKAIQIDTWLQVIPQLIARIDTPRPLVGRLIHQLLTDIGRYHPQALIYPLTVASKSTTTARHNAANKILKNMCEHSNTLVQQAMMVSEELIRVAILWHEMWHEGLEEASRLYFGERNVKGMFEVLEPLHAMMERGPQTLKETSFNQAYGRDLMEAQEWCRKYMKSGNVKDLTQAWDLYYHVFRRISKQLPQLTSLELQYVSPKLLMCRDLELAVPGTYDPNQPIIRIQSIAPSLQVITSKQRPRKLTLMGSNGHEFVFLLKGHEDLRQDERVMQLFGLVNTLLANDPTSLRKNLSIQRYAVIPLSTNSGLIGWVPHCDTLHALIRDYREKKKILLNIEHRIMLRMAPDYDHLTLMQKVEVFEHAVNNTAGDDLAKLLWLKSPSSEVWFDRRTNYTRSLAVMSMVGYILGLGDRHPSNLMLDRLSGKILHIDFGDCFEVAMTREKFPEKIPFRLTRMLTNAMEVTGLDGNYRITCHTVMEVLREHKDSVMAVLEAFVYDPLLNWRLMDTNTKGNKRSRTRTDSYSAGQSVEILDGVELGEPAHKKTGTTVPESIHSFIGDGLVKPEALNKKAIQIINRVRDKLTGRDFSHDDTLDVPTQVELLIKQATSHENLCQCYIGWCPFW
- Assay Info: mTOR activity assay (LanthaScreen)
- Assay type: biochemical
Outcome Measure: pIC50
Scale explanation: pIC50 corresponds to minus log10 of a concentration expressed in moles per litre.

Smiles Data	Meas Value
CNc1nc2ccc(Cl)cc2n1-c1nc2c(c(C(C)(C)S(C)(=O)=O)n1)OC[C@@H]1COCCN21	5.26
CS(=O)(=O)C1(c2nc(-c3cc(C(F)(F)F)cc4[nH]ccc34)nc3c2OC[C@@H]2COCCN32)CCOCC1	5.70

Prompt: What measured pIC50 goes with `CS(=O)(=O)C1(c2nc(-c3ccnc4[nH]ccc34)nc3c2OC[C@@H]2COCCN32)CCOCC1` ?
Completion: 5.33

Prompt: What measured pIC50 goes with `CC(C)(c1nc(-n2c(N3CCOCC3)nc3ccccc32)nc2c1OC[C@@H]1COCCN21)S(C)(=O)=O` ?
Completion: 5.00

Prompt: What measured pIC50 goes with `CNc1nc2cc(F)ccc2n1-c1nc2c(c(C(C)(C)S(C)(=O)=O)n1)OC[C@@H]1COCCN21` ?
Completion: 5.80

Prompt: What measured pIC50 goes with `Cc1cc2c(-c3nc4c(c(C5(S(C)(=O)=O)CCC5)n3)OC[C@@H]3COCCN43)cccc2[nH]1` ?
Completion: 6.93

Prompt: What measured pIC50 goes with `CNc1nc2ccccc2n1-c1nc2c(c(C3(S(C)(=O)=O)CCC3)n1)OC[C@@H]1COCCN21` ?
Completion: 5.91
